Values compiled from ChEMBL document CHEMBL1201862.

# Test system: SNB-19
# Test method notes: NCI tumour cell line growth inhibition, 48 h
Calls of active or inactive are those of the source. Cut-off read from the data, not from the text of the source: active = GI50 up to about 1.1 µM and inactive = higher.
# output must be one of yes (1) for active, no (0) for inactive

Use these answered entries as a reference point.
Compound | System | Label
CC(=O)Nc1cc(N(CCOS(C)(=O)=O)CCOS(C)(=O)=O)ccc1N=O | SNB-19 | no (0)
Cc1ccc2c3c1[C@@H]1O[C@@H]1c1cccc(c1-3)[C@@H]1O[C@H]21 | SNB-19 | no (0)
CC(C)C1(O)C(c2ccccc2)=C(c2ccccc2)C(c2ccccc2)=C1c1ccccc1 | SNB-19 | no (0)

What did the test return for O=C(Nc1c(C(F)(F)F)cc(-c2ccccc2)[nH]c1=O)N1CCOCC1 ?
no (0)

Can you look up the reported call for O=C(NCC(C(=O)OCc1ccccc1)C(=O)OCc1ccccc1)OCc1ccccc1 for me?
no (0)

What did this assay record as the result for COC(=O)C(=O)C(C(=O)OC)C(=O)C(=O)Nc1c(C)cccc1C (stereo not given) ?
no (0)
